System: CCRF-CEM leukemia
assay_info: NCI tumour cell line growth inhibition, 48 h
readout: TGI

C[C@@H](CS[As](C)C)C(=O)N1CCC[C@H]1C(=O)O    0.643 µM
COc1c(B(O)O)cccc1-c1nc2ccc3[nH]ncc3c2c2c1CCCC2    > 49.7 µM
CCC[CH2][Sn]([CH2]CCC)([O]C(=O)c1cc(F)ccc1F)[O]C(=O)c1cc(F)ccc1F    1.25 µM
COc1c(-c2ccc3c(c2)OCO3)oc2cc(O)cc(O)c2c1=O    > 100 µM
N#C/C(=C\c1ccc([N+](=O)[O-])o1)c1n[nH]c(Cc2ccccc2)n1    1.81 µM
O=C1NC2(CCCCC2)C2CCCCC=C12 (configuration not stated)    > 100 µM
CC(=O)N1C(=O)c2cc3ccccc3cc21    > 100 µM
COc1ccc(CCc2ccc3c(c2)OCO3)cc1    > 100 µM
CC(C)c1[nH]nc2c(NCc3ccc(-c4ccccn4)cc3)nc(SCCN(C)C)nc12    4.87 µM
N#CC(C(=N/O)/C(=N\O)C(C#N)c1ccccc1)c1ccccc1 (configuration not stated)    > 100 µM
CC(C)(C)C1=CC(=C2C=Cc3cc(O)ccc3O2)C=C(C(C)(C)C)C1=O    3.45 µM
C=CCC(N[C@H](CO)c1ccccc1)c1ccccn1 (some centres not stated)    > 100 µM
NC(Cc1cccnn1)C(=O)O (configuration not stated)    > 100 µM
COC(=O)[C@@H](NC(=O)[C@H](N)Cc1ccc(N(CCCl)CCCl)cc1)C(C)C    > 29.6 µM
COc1c2cc([N+](=O)[O-])cc1CN(C(=O)C(F)(F)F)CCOCCN(C(=O)C(F)(F)F)C2    > 100 µM
O=C1N/C(=N\N=C\c2ccccc2)C2(CCCCC2)O1    61.1 µM
CC(C)(C)C(=O)c1c(C(F)(F)F)n([O-])c2cc(Cl)c(Cl)cc2[n+]1=O    1.19 µM
O=C(Cn1c(C(=O)/C=C/c2ccc(Cl)cc2)nc2ccccc21)c1ccc(Cl)cc1    8.45 µM
N#Cc1c(N)nc(SCc2ccccc2)c(C#N)c1-c1ccc(O)cc1    38.6 µM
C1=Nc2ccc(cc2)-c2ccc(cc2)N=Cc2ccc(cc2)OCc2cccc(n2)COc2ccc1cc2    > 100 µM
COc1cccc(N2CCN(c3ncnc4cc[nH]c34)CC2)c1    > 100 µM
COc1cc2c3c(n(CCN4CCOCC4)c(=O)c2cc1OC)-c1ccccc1C3=O    > 100 µM

* * *

Test system: MDA-MB-231 breast
assay_info: NCI tumour cell line growth inhibition, 48 h; in the data active means GI50 below about 0.43 µM; inactive means the rest
Classes used: class 1 (active), class 0 (inactive)

CC(C)c1[nH]nc2c(NCc3ccc(-c4ccccn4)cc3)nc(SCCN(C)C)nc12    class 1
O=C(N/N=C/c1cc(Cl)ccc1O)c1ccccc1Nc1ccnc(C(F)(F)F)c1    class 0
Cc1nc2sc(C(=O)Nc3ccccc3)c(N)c2cc1C(O)c1ccccc1 (stereo not given)    class 1
[Cl][Hg][c]1ccc2ccccc2c1    class 0
C[C@@]1(C(=O)O)CCC[C@]2(C)C1CC[C@]13C[C@@](O)(CO)[C@](O)(CC[C@]12O)C3 (stereo not given in full)    class 0
CC(=O)CCc1ccc(Oc2c3c(nc4ccccc24)OCC3)cc1    class 0
CCn1cc(C(=O)N/N=C/c2cccs2)c(=O)c2cc(F)c(N3CCNC(C)C3)c(F)c21 (stereo not given)    class 0
COc1ccc(/C=C2\COc3ccc(O)c(O)c3C2=O)cc1OC    class 0
Cc1cc2c3c([n+](C)c4ccc(F)cc4c3c1)-c1cc(F)ccc1N2C    class 0
O=C(CSC(c1ccccc1)c1ccccc1)N/N=C/c1ccccc1Cl    class 0
